- measurement_description: M. tuberculosis growth inhibition, HTS (AID 449762);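 also: bacterial growth assessed after seven days of incubation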
- condition_context: M. tuberculosis H37Rv growth inhibition, 7H9 media; at 25 µM; stronger effect = higher value
Out of some 330,000 compounds screened, about 1,900 (0.58%) were called active. Inconclusive results (about 4%) are left out. Only a sample is shown. Potency and affinity values are given separately.
readout_name: inhibition (%)
Note: unit % is implicit; provide only the numeric part.

stdin: Output measured inhibition for this item: Cc1cc2nc(/N=C(\N)NC(=O)N3c4ccccc4Sc4ccccc43)nc(C)c2cc1C
stdout: -0.79

stdin: Output measured inhibition for this item: CCCC(=O)N/C(N)=N/c1nc(C)c2cc(C)ccc2n1
stdout: 45.9

stdin: Output measured inhibition for this item: COc1ccccc1C(=O)NC(=O)COC(=O)c1nc2nc(C)cc(C)n2n1
stdout: -0.8

stdin: Output measured inhibition for this item: O=C(OCC(=O)N1CCOCC1)c1cnc(Cl)c(Cl)c1
stdout: -0.51

stdin: Output measured inhibition for this item: CCC(=O)N/C(N)=N/c1nc(C)c2cc(C)c(C)cc2n1
stdout: 7.41

stdin: Output measured inhibition for this item: O=C(COC(=O)c1cnc(Cl)c(Cl)c1)c1ccc(F)cc1
stdout: 2.14

stdin: Output measured inhibition for this item: COc1ccc(OC)c(-c2cc(C3CCN(C(=O)OC(C)(C)C)CC3)[nH]n2)c1
stdout: -1.26

stdin: Output measured inhibition for this item: COc1ccc(-c2cc(C3CCN(CC(O)C(F)(F)F)CC3)[nH]n2)cc1 (stereo unspecified)
stdout: 7.78

stdin: Output measured inhibition for this item: CCOC(=O)CN1CCC(c2cc(-c3ccc(Cl)cc3)n[nH]2)CC1
stdout: 0.17

stdin: Output measured inhibition for this item: CSc1cccc(CN2CCN(CCC(C)C)C(CCO)C2)c1 (stereo unspecified)
stdout: -6.35

stdin: Output measured inhibition for this item: Cc1ccc(CNC(=O)Cn2cccc2C(=O)c2ccccc2C)cc1
stdout: -0.89
